Test system: KM12 colon
Test Summary: NCI tumour cell line growth inhibition, 48 h
Consider the following compounds and their measured TGI readings.
Record the value in µM, omitting the unit from your answer.

CN(C)c1ccc(/C=C/c2ccc3ccccc3[n+]2C)cc1 ... 13.6

Now take the following compound into account.
Form: compound = `Cc1nc2cc(-n3c(-c4ccc(F)cc4)nc4ccccc4c3=O)ccc2n1Cc1ccccc1` ; TGI = 15.7

====

System: OVCAR-3 ovarian
Test Summary: NCI tumour cell line growth inhibition, 48 h
Measurement Label: GI50

Sample answers from the record:
CC(=O)[CH-]C(C)=O.CC(=O)[CH-]C(C)=O.[CH2-]CCCCCCC.[CH2-]CCCCCCC.[Sn+4] ... 15.9 µM
COc1ccc2nc3cc(Cl)ccc3c(NCCCCCN3CCCCC3)c2c1 ... 0.123 µM
O=C(Nc1cccc(-c2cccc(F)c2)c1)C1CCN(Cc2cccc3cccnc23)CC1 ... 3.51 µM

Form: compound = Clc1ccc(C2c3ccccc3-c3nccn32)c(Cl)c1 (stereo not given) ; GI50 = 11 µM

Form: compound = `CN1CCN(c2ccc3nc(-c4c5cccccc-5[nH]c4=O)[nH]c3c2)CC1` ; GI50 = 17.2 µM

Form: compound = `O=C(C[Si](CC(=O)c1cccc(C(F)(F)F)c1)CC(=O)c1cccc(C(F)(F)F)c1)c1cccc(C(F)(F)F)c1` ; GI50 = 3.32 µM

Form: compound = `CC(=O)c1cc2c(c(O)c1C)C(=O)C(=O)c1c(O)cccc1-2` ; GI50 = 0.0768 µM

Form: compound = CCOC(=O)C1=C(C)N(c2ccc(OC)cc2)C2(O)C=CC(=O)C3C(=O)N(c4ccccc4)C(=O)C132 (stereo not given) ; GI50 = 1.89 µM

Form: compound = `COC(=O)C1=C(O)[C@H](C(=O)OC)C2(O)[C@@H](C(=O)OC)[C@H]1C[C@@H](c1ccc(OC(=O)n3ccnc3)cc1)[C@@H]2C(=O)OC` ; GI50 = 12.6 µM

====

Consider the following compounds and their measured TGI readings.
Tested on: CAKI-1 renal
Test Summary: NCI tumour cell line growth inhibition, 48 h

Sample answers from the record:
O=C(CC1(O)C(=O)Nc2c(Cl)cc(Cl)cc21)c1ccco1 (configuration not stated) ... > 100 µM
COc1cccc(NC(=O)CC(=O)N2NC(c3ccccc3)C(N=Nc3cccc(C(=O)O)c3)C2=O)c1 (configuration not stated) ... > 100 µM
CC(C)[Si]1(C(C)C)OCC2OC(N3C(=O)NC(=O)C[C@@H]3C(O)c3ccccc3)CC2O[Si](C(C)C)(C(C)C)O1 (some centres not stated) ... 30.7 µM
CCCCCCC1NN(C(C)=O)C(CCCCCC)NN1C(C)=O (configuration not stated) ... > 100 µM
FC(F)(F)c1ccc(-c2cncn2-c2ccccc2)cc1 ... > 100 µM
O=C1c2ccc(O)cc2OC(c2cc(O)c(O)c(O)c2)C1O (configuration not stated) ... > 100 µM

So the reported TGI for `NNC1=N/C(=C\c2ccccc2O)C(=O)N1` , on CAKI-1 renal, turned out to be > 100 µM

So the reported TGI for O=C1CC(c2ccccc2Cl)Oc2ccccc21 (configuration not stated) , on CAKI-1 renal, turned out to be > 100 µM

So the reported TGI for `COc1cc(OC)cc(C(=O)NC2=C(Cl)C(=O)c3ccccc3C2=O)c1` , on CAKI-1 renal, turned out to be 17.7 µM

So the reported TGI for `Cc1cc(O)c2c3c1C(=O)Oc1c(CO)c(O)c(C(=O)O)c(c1O3)C=NN=Cc1c3c(c(CO)c(O)c1C(=O)O)OC(=O)c1c(C)cc(O)c(c1O3)C=NN=C2` , on CAKI-1 renal, turned out to be > 100 µM

So the reported TGI for `Cc1cc(C)c2cc(N)c(Cl)nc2n1` , on CAKI-1 renal, turned out to be > 100 µM

So the reported TGI for CC(=O)NC1C(OCc2ccccc2)OC(CO)C(O)C1OCC(=O)N1CCCC1C(=O)N[C@@H](CCC(=O)NCCNCCNc1c2ccccc2nc2cccc([N+](=O)[O-])c12)C(N)=O (some centres not stated) , on CAKI-1 renal, turned out to be 16.5 µM

So the reported TGI for `CCOP(=O)(OCC)/C(C#N)=C/c1cnc(C)[nH]1` , on CAKI-1 renal, turned out to be > 100 µM

So the reported TGI for COc1ccc(C2C=C(c3ccccc3)Nc3nnnn32)cc1 (configuration not stated) , on CAKI-1 renal, turned out to be > 100 µM

So the reported TGI for Cc1ccc(C2=C(c3ccc(C)cc3)C3(c4ccc(C)cc4)[C@@H](C#N)[C@H](C#N)C2(c2ccc(C)cc2)S3=O)cc1 (some centres not stated) , on CAKI-1 renal, turned out to be > 100 µM

So the reported TGI for `Oc1ccc(N=Cc2ccc(C=Nc3ccc(O)cc3)cc2)cc1` , on CAKI-1 renal, turned out to be 35.1 µM

So the reported TGI for `S=C1NCN2CCN(CC2)CNC(=S)C(=S)NCN2CCN(CC2)CNC1=S` , on CAKI-1 renal, turned out to be > 100 µM

So the reported TGI for `CCCCCCc1nn2c(-c3ccncc3)nnc2s1` , on CAKI-1 renal, turned out to be > 10 µM

So the reported TGI for CC1(C)C(OC(=O)c2ccccc2)C[C@]23CCC[C@](C)(C[C@@H](O)C12)C3 (some centres not stated) , on CAKI-1 renal, turned out to be 40.8 µM

So the reported TGI for `COc1ccc(-c2cc(-c3cc(F)c(Cl)cc3Cl)[nH]n2)cc1OC` , on CAKI-1 renal, turned out to be > 100 µM

So the reported TGI for COC1CC(C)(N)C(O)C(C)O1 (configuration not stated) , on CAKI-1 renal, turned out to be > 100 µM

So the reported TGI for CC1=NN(c2nc(N)nc(/C(C#N)=C\C3COc4ccccc4C3=O)n2)C(C)(C)C1 (configuration not stated) , on CAKI-1 renal, turned out to be > 100 µM

So the reported TGI for CC(=O)SSC1(Cl)C(C)(C)C(Cl)(SSC(C)=O)C1(C)C (configuration not stated) , on CAKI-1 renal, turned out to be > 100 µM

So the reported TGI for `CC(=O)[CH-]C(C)=O.CC(=O)[CH-]C(C)=O.[CH2-]CCCCCCC.[CH2-]CCCCCCC.[Sn+4]` , on CAKI-1 renal, turned out to be > 100 µM

So the reported TGI for CC1=CC2CCC1(C)C/C2=C(/C)OC=O (configuration not stated) , on CAKI-1 renal, turned out to be > 100 µM

So the reported TGI for O=C(O)C(Cc1c[nH]c2ccccc12)C(=O)NO (configuration not stated) , on CAKI-1 renal, turned out to be > 100 µM

So the reported TGI for `CC(=O)c1c(P(=O)(OC(C)C)OC(C)C)nn(-c2ccc([N+](=O)[O-])cc2)c1C` , on CAKI-1 renal, turned out to be > 100 µM

So the reported TGI for `Cc1cc(Nc2cccc(F)c2)nc(NCc2ccccc2)n1` , on CAKI-1 renal, turned out to be 17.8 µM

So the reported TGI for `CCC1=C(c2ccc(OC)cc2)CC[C@@]2(CCNC2=O)[C@@H]1C` , on CAKI-1 renal, turned out to be > 100 µM

====

Consider the following compounds and their measured TGI readings.
System: CCRF-CEM leukemia
Test Summary: NCI tumour cell line growth inhibition, 48 h

O=C(Nc1cccc(-c2cccc(F)c2)c1)C1CCN(Cc2cccc3cccnc23)CC1 ... 11.2 µM

Now take the following compound into account.
Form: compound = `COc1ccc(CCn2nccc2C)cc1` ; TGI = > 100 µM

====

Consider the following compounds and their measured TGI readings.
Tested on: M14 melanoma
Test Summary: NCI tumour cell line growth inhibition, 48 h

Sample answers from the record:
O=C1c2ccccc2C(=O)c2c(N=Nc3[nH]c(=S)[nH]c3O)cccc21 ... > 100 µM
CN(C)c1ccc(/C=C2\Oc3ccccc3C2=O)cc1 ... > 100 µM
C[C@@H]1CCC[C@]2(C)O[C@H]2CC[C@@](C)(O)[C@@H]2CC3=C(CO)C(=O)O[C@H]3[C@H]1O2 ... > 50 µM
CCOC(=O)N/N=C(\Cc1ccccc1)OCC ... > 100 µM
O=C1CC(c2ccccc2Cl)Oc2ccccc21 (configuration not stated) ... > 100 µM

Form: compound = COc1cc(C2c3[nH]c4ccccc4c3[C@@H](Nc3ccc(F)cc3)[C@H]3COC(=O)N23)cc(OC)c1O (some centres not stated) ; TGI = 9.55 µM

Form: compound = COc1cccc(NC(=O)CC(=O)N2NC(c3ccccc3)C(N=Nc3cccc(C(=O)O)c3)C2=O)c1 (configuration not stated) ; TGI = > 100 µM

FYI, the data here is from PubChem BioAssay (NCI).
